System: HT-29
Experiment: NCI tumour cell line growth inhibition, 48 h
Activity calls are given as the source filed them. Cut-off read from the data, not from the text of the source: active = GI50 up to about 1.1 µM and inactive = higher.
Labels: active, inactive

# Molecule, Class Label
measured = [
    ("CCN1CCC(O)(/C=C/c2ccc(C)cc2)C(C(=O)/C=C/c2ccc(C)cc2)C1 (stereo not drawn)", "inactive"),
    ("CC(=O)/C(=C(/Br)I)c1ccccc1", "inactive"),
    ("O=C(O)c1cc(-c2ccc3cc4c(cc3c2)OCO4)nc2ccccc12", "inactive"),
    ("CCOC1OC(COC(=O)C(C)(C)C)C(O)CC1n1cc(C)c(=O)[nH]c1=O (stereo not drawn)", "inactive"),
    ("COc1ccc(-c2c3c(n(C4OC(CO)C(O)C(O)C4O)c(=S)c2C#N)CCC3)cc1 (stereo not drawn)", "inactive"),
    ("CNC(=O)OCc1nc(N=[N+]=[N-])n(C)c1COC(=O)NC", "inactive"),
    ("CCCCCCCN1C(=O)C(O)(c2ccc(C3(O)C(=O)N(CCCCCCC)c4ccccc43)s2)c2ccccc21 (stereo not drawn)", "inactive"),
    ("CCc1ccccc1N1CCN(C(=O)c2cc(OC)c(OC)c(OC)c2)CC1", "active"),
]

----------
GI50 for assorted compounds
Tested on: SF-539
Experiment: NCI tumour cell line growth inhibition, 48 h
Activity calls are given as the source filed them. Rule as the data show it: active = GI50 up to about 1.1 µM and inactive = higher.
Endpoint: GI50

# Compound, Endpoint, Reported Value
records = [
    ("CS[C@]12[C@@H]3C(=O)N(C)C(=O)[C@@H]3[C@](C)(C(=O)N1C)C(=O)N2c1ccccc1", "GI50", "> 100 µM (inactive)"),
    ("O=c1cc(/N=N\\c2ccc(Br)cc2)[nH]c(=S)[nH]1", "GI50", "70.1 µM (inactive)"),
    ("CN1N=C2c3ccccc3OC(c3ccccc3)[C@H]2C1c1ccccc1 (some centres undefined)", "GI50", "> 100 µM (inactive)"),
    ("O=C(/C=C\\c1ccccc1)N1CCc2ccccc2C1", "GI50", "49.8 µM (inactive)"),
]

----------
Tested on: NCI-H460
Experiment: NCI tumour cell line growth inhibition, 48 h
Calls of active or inactive are those of the source. Cut-off read from the data, not from the text of the source: active = GI50 up to about 1.1 µM and inactive = higher.
Labels: T = active, F = inactive

# Molecule, Class Label
measured = [
    ("CCOC(CCNCC(OCC)OCC)OCC", "F"),
    ("COc1cc(/C=N/n2c(C)n[nH]c2=O)cc(OC)c1OC", "F"),
    ("COc1ccc(C(=O)/C=C/c2ccc(OCCCCCCCCCCOc3ccc(/C=C/C(=O)c4ccc(OC)c(OC)c4)cc3)cc2)c(OC)c1", "F"),
    ("O=c1cc(-c2ccccc2)c2ccc(O)c(CN(CCCl)CCCl)c2o1", "F"),
    ("COC(=O)C1CC2C=CC1N(C(=O)OCc1ccccc1)C2 (stereo unspecified)", "F"),
    ("COC(=O)C(Cc1nc2ccc(Cl)cc2nc1O)C(=O)C(=O)Nc1cc(C)ccc1C (stereo unspecified)", "F"),
    ("CC1CN=C(N(C(=O)Nc2ccccc2)c2ccccc2)S1 (stereo unspecified)", "F"),
    ("[O-][Cl+3]([O-])([O-])[O-].c1ccc(-c2csc3c4ccccc4c4ccccc4[n+]23)cc1", "F"),
    ("COCCO", "F"),
    ("CCCS(=O)(=O)O", "F"),
    ("C=C1C(=O)OC2CC3(C)CCCC(C)C3=CC12 (stereo unspecified)", "F"),
    ("O=C1CC(=O)NC(NN2C(=O)CSC2C(=O)c2ccco2)=N1 (stereo unspecified)", "F"),
    ("Cc1ccc2c(O)cc(-c3ccc(Cl)s3)nc2n1", "T"),
    ("Cc1nn(-c2ccccc2)c2nc3ccc(Cl)cc3c(-c3ccccc3)c12", "F"),
    ("CCOC(=O)CCc1ccc(NC(=O)/C=C/c2ccc([N+](=O)[O-])o2)cc1", "F"),
    ("S=C1N=C2C(=N1)n1c3c(c4ccccc41)CCCC23 (stereo unspecified)", "F"),
    ("Cc1cc2c(ccc[n+]2[O-])[n+]([O-])c1", "F"),
    ("O=C1OCC2=C1C(c1ccc3c(c1)OCO3)c1cc3c(cc1O2)OCO3 (stereo unspecified)", "T"),
    ("Cc1c(C(=O)C(=O)c2ccccc2)c(C)c(C(=O)C(=O)c2ccccc2)c(C)c1C(=O)C(=O)c1ccccc1", "F"),
    ("Cc1n[nH]c(=O)n1/N=C/c1ccc(F)cc1", "F"),
    ("COc1cccc(Nc2n[nH]c(NS(=O)(=O)c3cc(C)c(Cl)cc3S)n2)c1", "F"),
    ("CCCCCCCCCCCCCCCC[N+](C)(C)Cc1ccc(C[N+](C)(C)CCCCCCCCCCCCCCCC)cc1", "F"),
    ("CC(C)(C)C(=O)Cc1cc2c(cc1C(=O)O)S(=O)(=O)NC(C(C)(C)C)=C2", "F"),
    ("N#Cc1nc2cc(Cl)ccc2nc1N1CCN(c2ccc([N+](=O)[O-])cc2)CC1", "F"),
    ("CN(C)C1(N(C)C)Oc2c(c(=O)n(C)c(=O)n2C)C(c2ccccc2)C1(F)F (stereo unspecified)", "F"),
    ("O=c1ccc2cc3ccc4cccc5ccc(c2o1)c3c45", "F"),
    ("CCC(=O)N/S(=N/S(=O)(=O)c1ccccc1)C(Cl)(Cl)Cl (stereo unspecified)", "F"),
    ("FC(F)(F)c1ccc2nc(Nc3ccc(Cl)c(Cl)c3)c(-c3ccccc3)nc2c1", "F"),
    ("O=C1c2ccccc2C(=O)c2cc3c(cc21)C[S+]([O-])C3", "F"),
    ("Cc1ccc(S(=O)(=O)[N-]C2C(=O)c3ccccc3C(=O)C2[n+]2cccc(C(N)=O)c2)cc1 (stereo unspecified)", "F"),
    ("COC1CC(NC(=O)C(F)(F)F)C(OC(C)=O)C(C)O1 (stereo unspecified)", "F"),
    ("O=c1n(N=[S+]([O-])(c2ccccc2)c2ccccc2)c(=O)n2n1C1C=CC2CC1", "F"),
    ("CC(=O)Nc1ccc(-c2nc3ccccc3s2)cc1I", "F"),
    ("C=CCNc1nc2c(s1)C(=O)c1ccccc1C2=O", "F"),
    ("C=C1C(=O)O[C@H]2C[C@@]3(C)[C@H](O)CCC(=C)[C@@H]3[C@@H](OC(C)=O)[C@H]12", "F"),
    ("COc1cc(C(=O)O)c([N+](=O)[O-])c(OC)c1OC", "F"),
]

----------
System: SF-539
Experiment: NCI tumour cell line growth inhibition, 48 h
The source made the active and inactive calls. Cut-off read from the data, not from the text of the source: active = GI50 up to about 1.1 µM and inactive = higher.
Labels: yes = active, no = inactive

# Compound, Assay Target, Class Label
measured = [
    ("N#C/C(=C/NC(=S)Nc1ccc(S(N)(=O)=O)cc1)C(N)=O", "SF-539", "no"),
    ("Cc1ccc(NC(=O)CCC(=O)C2CC(=O)CC/C2=N\\NC(=O)c2cc3ccccc3cc2O)cc1C (stereo not given)", "SF-539", "no"),
    ("COc1cc(Cc2cc3c(c(C(=O)O)c2Br)OCO3)cc(OC)c1OC", "SF-539", "no"),
    ("O=C1OC(CC(=O)c2ccccc2Cl)C(Cl)=C1Cl (stereo not given)", "SF-539", "no"),
    ("COC(=O)C1=C(C(=O)OC)N(C(C)C)[C@H]2C(C(=O)OC)=C(C(=O)OC)N(C(C)C)[C@@H]12", "SF-539", "no"),
    ("COC1OC(C)C(OC(=O)C(C)(C)C)C(C)(O)C1O (stereo not given)", "SF-539", "no"),
    ("O=C1CNNC(CSc2nc3ccc(I)cc3c(=O)n2Cc2ccccc2)=N1", "SF-539", "no"),
    ("CC(SC(=S)N1CCOCC1)C(=O)Nc1nnc(-c2ccc(Cl)cc2)o1 (stereo not given)", "SF-539", "no"),
    ("COC(=O)C(=O)c1cc2ccccc2n1S(=O)(=O)c1ccccc1", "SF-539", "no"),
    ("Cc1cn(C2CC(N/C(=N/C#N)NCC3OC(n4cnc5c(N)ncnc54)CC3O)C(CO)O2)c(=O)[nH]c1=O (stereo not given)", "SF-539", "no"),
    ("CCCCCCCCCCCOCCC1C(C(C)OCCN2CCCC2)OC2OC(C)(C)OC21 (stereo not given)", "SF-539", "no"),
    ("c1ccc2c(c1)Oc1cccc3cccc-2c13", "SF-539", "no"),
    ("Cc1cc(O)cc(O)c1C(=O)O[C@]1(C)C(=O)C=C2C=C(/C=C/C(=O)O)OC=C2C1=O", "SF-539", "no"),
    ("CCN1CCC(O)(/C=C/c2ccc(C)cc2)C(C(=O)/C=C/c2ccc(C)cc2)C1 (stereo not given)", "SF-539", "no"),
    ("CC1[C@@H]2CC=C3C4CCC5Cc6nc7c(nc6C[C@@]5(C)C4CC(=O)[C@]32CO[C@@]1(O)C(O)CC(C)(C)O)CC1CCC2C3=C[C@H]4O[C@@]5(O[C@@](C)(CO)C[C@@H]5O)C(C)[C@@]4(O)[C@]3(C)[C@@H](O)CC2[C@]1(C)C7 (stereo not given in full)", "SF-539", "yes"),
    ("CCCCC1(N=[N+]=[N-])C(=O)c2cccc3c2N(CCC3)C1=O (stereo not given)", "SF-539", "no"),
    ("NC(=O)Cc1nc2c(O)ncnc2n1C1OC(CO)C(O)C1O (stereo not given)", "SF-539", "no"),
    ("COC(=O)CSc1cc(Cl)c(C)cc1S(=O)(=O)Nc1n[nH]c(N)n1", "SF-539", "no"),
    ("COC(C)(C)C(O)C(O)C[C@H](C)C1CC=C2C1(C)CCC1[C@@]3(C)CCC(OC(C)=O)C(C)(C)C3CC(OC3OC(COC(C)=O)C(O)C(O)C3O)[C@@]21C (stereo not given in full)", "SF-539", "no"),
    ("Nc1ccn(CCOC(c2ccccc2)P(=O)(O)O)c(=O)n1 (stereo not given)", "SF-539", "no"),
    ("COc1ccc(C2S/C(=C\\c3cc(OC)c(OC)c(OC)c3)C(=O)N2NC(=O)Cc2ccccc2)cc1 (stereo not given)", "SF-539", "no"),
    ("C=C(CCC(C(=O)O)C1CCC2(C)C3=C(CCC12C)C1(C)CCC(O)C(C)(C)C1CC3)C(C)C (stereo not given)", "SF-539", "no"),
    ("COC1CC(NC(=O)C(F)(F)F)C(OC(C)=O)C(C)O1 (stereo not given)", "SF-539", "no"),
    ("O=c1[nH]c2cccccc-2c1-c1nc2ccccc2[nH]1", "SF-539", "no"),
    ("C=C1C(=O)C23C(O)CC4C(C)(C)CCC(O)C4(C)C2CC(OC(C)=O)C1[C@H]3O (stereo not given in full)", "SF-539", "no"),
    ("Cc1nc(SCC(N)=O)c2sc(=S)n(-c3ccccc3)c2n1", "SF-539", "no"),
    ("CCn1c(-c2cc(OC)cc(OC)c2)nc2c1C(=O)c1ccccc1C2=O", "SF-539", "no"),
    ("CSC(SC)=C(C#N)C(=O)Nc1ccc(Cl)cc1", "SF-539", "no"),
    ("CCOC(=O)C(C(=S)SC)c1nn2c(=O)cc(C)nc2s1 (stereo not given)", "SF-539", "no"),
    ("O=C(O)CN(c1ccccc1)S(=O)(=O)c1ccc([N+](=O)[O-])cc1", "SF-539", "no"),
]
